# Tgt: Prostaglandin E2 receptor EP1 subtype (Homo sapiens, UniProt P34995)
# Sequence (P34995 whole entry): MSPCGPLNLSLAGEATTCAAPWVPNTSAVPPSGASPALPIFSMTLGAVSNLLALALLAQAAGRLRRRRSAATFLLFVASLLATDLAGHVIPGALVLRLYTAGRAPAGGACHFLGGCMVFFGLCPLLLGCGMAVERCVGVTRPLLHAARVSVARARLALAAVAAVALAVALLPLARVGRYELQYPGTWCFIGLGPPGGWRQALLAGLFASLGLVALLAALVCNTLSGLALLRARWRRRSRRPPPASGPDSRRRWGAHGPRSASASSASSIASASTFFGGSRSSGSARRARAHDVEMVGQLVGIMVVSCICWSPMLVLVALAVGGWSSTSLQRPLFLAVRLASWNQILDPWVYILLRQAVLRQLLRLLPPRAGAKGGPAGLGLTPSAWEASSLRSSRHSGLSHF
# Assay Info: Agonist activity at human EP1 expressed in HEK293 cells assessed as increase in cAMP level incubated for 20 mins measured after 60 mins addition of cAMP detect reagent by HTRF analysis
Measured pEC50 by item
Note on units: pEC50 is unitless, being -log10 of a concentration expressed in mol/L.

> print(dat)
                                   compound                                       tgt  measured.number
1  CC#CCC(C)[C@H](O)/C=C/[C@@H]1[C@H]2C/C(=C/CCCC(=O)O)C[C@H]2C[C@H]1O (some centres not stated)  Prostaglandin E2 receptor EP1 subtype (Homo sapiens, UniProt P34995)             9.52

Moving on to another compound below.
Any idea what pEC50 was measured for CCCCC[C@H](O)CC[C@@H]1[C@H]2Cc3cccc(OCC(=O)O)c3C[C@H]2C[C@H]1O ?
6.55
